Biological target: ScBbc1
Test: SPOT peptide array binding signal intensity (averaged, normalized) (arbitrary units (background-subtracted, floor 0; scale differs between SH3 domains)); higher = stronger binding of the SH3 domain to the peptide
Recorded SPOT peptide array binding signal intensity, one value per entry.
endpointName: SPOT peptide array binding signal intensity

{"binder": "APKREAPKPPANTSP", "measuredValue": 156}
{"binder": "ISNFVPPNLPMRRFK", "measuredValue": 130}
{"binder": "GAGERPRLVPRPINV", "measuredValue": 29.5}
{"binder": "GLRRARYKFPGQQKI", "measuredValue": 19}
